Reported kon is given for each of the following binders.
- target: T1, human DLL3 (ACRO, DLL3-H52H4) (human, UniProt Q9NYJ7 27-492)
- T1 construct: Bought
- T1 sequence: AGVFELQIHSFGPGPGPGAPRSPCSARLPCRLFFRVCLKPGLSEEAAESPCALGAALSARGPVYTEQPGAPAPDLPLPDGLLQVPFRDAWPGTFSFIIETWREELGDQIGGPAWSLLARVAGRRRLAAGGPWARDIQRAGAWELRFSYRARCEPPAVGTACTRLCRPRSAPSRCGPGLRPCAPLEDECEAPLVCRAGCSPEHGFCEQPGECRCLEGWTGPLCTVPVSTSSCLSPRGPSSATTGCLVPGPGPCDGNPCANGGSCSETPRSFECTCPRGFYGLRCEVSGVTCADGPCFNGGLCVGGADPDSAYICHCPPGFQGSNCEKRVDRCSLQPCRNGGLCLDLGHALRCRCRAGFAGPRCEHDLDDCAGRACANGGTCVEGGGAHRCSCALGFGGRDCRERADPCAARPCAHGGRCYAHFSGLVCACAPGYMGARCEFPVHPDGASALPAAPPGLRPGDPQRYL
- assay overview: SPR Biacore 8K, Ab captured on Protein A
Response body: numeric value in M⁻¹ s⁻¹, unit text excluded.

binder	kon [M⁻¹ s⁻¹]
hu6L4H13 (antibody, human IgG1, kappa, V domains shown, also called hu6L4VH13) VH: EVQLVQSGSELKKPGASVKVSCKASGYTFTDYYMNWVKQAPGQGLEWMGIINPYSGVTIYNHKFKGRFALSVDKSSNTAYLQISSLKAEDTAVYYCARQDSLLDYAMDYWGQGTTVTVSS VL: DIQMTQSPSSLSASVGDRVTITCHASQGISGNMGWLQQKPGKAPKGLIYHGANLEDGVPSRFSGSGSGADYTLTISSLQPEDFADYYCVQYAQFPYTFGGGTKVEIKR	2.16e+06

Next binder, kon to be filled in.
kon lookup needed for hu98L3H2 (antibody, human IgG1, kappa, V domains shown) VH: EVQLVESGGGLVQPGGSLRLSCAASGFTFSDYGIHWVRQAPGKGLEWVAYISSGGYTIYYADTVKGRFTISRDNAKNSLYLQMNSLRAEDTAVYYCARGDYEDIFYTMDYWGQGTTVTVSS VL: DIQMTQSPSSLSASVGDRVTITCRASRDITKFLNWYQQKPGGAVKLLIYYTSRLHSGVPSRFSGSGSGTDYTLTISSLQPEDFATYYCQQGNTLPWTFGGGTKVEIKR , thanks.
1.58e+06
